Data origin, for the record: patent US20170334934A1

Tested on: Mycosphaerella graminicola; Anamorph: Zymoseptoria tritici
Experiment description: Fungicidal activity: Leaf Blotch of Wheat (SEPTTR), wheat seedlings
Assay type: in vivo
Cond: 72 h, Low Volume (121.5 g/H), 3 Day Curative, wheat, read-out: SEPTTR disease control rating, 3DC
Quantity name: pest or weed control at 121.5 g/ha

>>> print(df.to_string())
                       smiles_representation  result
 0  COc1ccnc(C(=O)N[C@H]2CCO[C@H](Cc3ccccc3)[C@@H](OCC(C)C)[C@H](C)OC2=O)c1OC(C)=O   > 70%
 1  COc1ccnc(C(=O)N[C@H]2CCO[C@H](Cc3ccc(F)cc3)[C@@H](OCC(C)C)[C@H](C)OC2=O)c1OC(C)=O   > 70%
 2  COc1ccnc(C(=O)N[C@H]2CCO[C@H](Cc3ccc(F)cc3)[C@@H](Oc3ccccc3)[C@H](C)OC2=O)c1OCOC(C)=O   > 70%
 3  COc1ccc(C[C@H]2OCC[C@H](NC(=O)c3nccc(OC)c3OCOC(C)=O)C(=O)O[C@@H](C)[C@@H]2OCC2CC2)cc1   < 70%
 4  COc1ccnc(C(=O)N[C@H]2CCOC[C@@H](OCc3ccccc3)[C@H](C)OC2=O)c1OCOC(C)=O   > 70%
 5  CC[C@H]1OCC[C@H](NC(=O)c2nccc(OC)c2OCOC(C)=O)C(=O)O[C@@H](C)[C@@H]1Oc1ccc(F)cc1   > 70%
 6  CCCO[C@H]1[C@H](C)OC(=O)[C@@H](NC(=O)c2nccc(OC)c2OC(C)=O)CCO[C@@H]1Cc1ccc(F)cc1   < 70%
 7  C=CCO[C@H]1[C@H](C)OC(=O)[C@@H](NC(=O)c2nccc(OC)c2OC(C)=O)CCO[C@@H]1Cc1ccc(F)cc1   < 70%
 8  CC[C@H]1OCC[C@H](NC(=O)c2nccc(OC)c2OC(C)=O)C(=O)O[C@@H](C)[C@@H]1Oc1ccccc1   > 70%
 9  COc1ccnc(C(=O)N[C@H]2CCOC[C@@H](Oc3ccccc3)[C@H](C)OC2=O)c1OCOC(C)=O   < 70%
10  COc1ccc(C[C@H]2OCC[C@H](NC(=O)c3nccc(OC)c3OCOC(C)=O)C(=O)O[C@@H](C)[C@@H]2Oc2ccccc2)cc1   < 70%
11  COc1ccnc(C(=O)N[C@H]2CCOC[C@@H](OCCCC(F)(F)F)[C@H](C)OC2=O)c1OC(C)=O   < 70%
12  C=C(C)CO[C@H]1[C@H](C)OC(=O)[C@@H](NC(=O)c2nccc(OC)c2OCOC(C)=O)CCO[C@@H]1CC   < 70%
